Listed next: entries and their corresponding Ki.
- experimentalTarget: D(4) dopamine receptor (Homo sapiens, UniProt P21917)
- Sequence (P21917 whole entry): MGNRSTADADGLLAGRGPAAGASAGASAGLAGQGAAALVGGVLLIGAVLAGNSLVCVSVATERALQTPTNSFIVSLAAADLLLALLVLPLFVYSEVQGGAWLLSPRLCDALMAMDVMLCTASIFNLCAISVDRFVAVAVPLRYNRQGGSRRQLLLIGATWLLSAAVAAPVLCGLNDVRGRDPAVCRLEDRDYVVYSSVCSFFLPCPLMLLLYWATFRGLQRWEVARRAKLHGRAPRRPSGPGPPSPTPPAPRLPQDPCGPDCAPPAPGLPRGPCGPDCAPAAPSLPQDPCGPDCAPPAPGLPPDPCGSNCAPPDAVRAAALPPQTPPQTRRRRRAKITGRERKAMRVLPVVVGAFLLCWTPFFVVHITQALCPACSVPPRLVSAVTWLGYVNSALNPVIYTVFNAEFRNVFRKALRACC

{"columns": ["molecule", "experimentalTarget", "Ki"],
 "data": [
  ["COc1ccccc1N1CCN(CCCCn2cc(-c3ccc4ccccc4c3)nn2)CC1", "D(4) dopamine receptor (Homo sapiens, UniProt P21917)", "232 nM"],
  ["COc1ccccc1N1CCN(CCCCc2cn(-c3ccc4[nH]ccc4c3)nn2)CC1", "D(4) dopamine receptor (Homo sapiens, UniProt P21917)", "353 nM"],
  ["Clc1cccc(N2CCN(CCCCc3cn(-c4ccc5[nH]ccc5c4)nn3)CC2)c1Cl", "D(4) dopamine receptor (Homo sapiens, UniProt P21917)", "510 nM"],
  ["Clc1cccc(N2CCN(CCCCn3cc(-c4ccc5[nH]ccc5c4)nn3)CC2)c1Cl", "D(4) dopamine receptor (Homo sapiens, UniProt P21917)", "> 2000 nM"],
  ["COc1ccccc1N1CCN(CCCCc2cn(-c3cccc4ncccc34)nn2)CC1", "D(4) dopamine receptor (Homo sapiens, UniProt P21917)", "> 1000 nM"],
  ["OC(CCn1cc(-c2ccc3ccccc3c2)nn1)CN1CCN(c2cccc(Cl)c2Cl)CC1 (racemic)", "D(4) dopamine receptor (Homo sapiens, UniProt P21917)", "> 20000 nM"],
  ["COc1ccccc1N1CCN(CC(O)CCn2cc(-c3ccc4c(c3)Cc3ccccc3-4)nn2)CC1 (racemic)", "D(4) dopamine receptor (Homo sapiens, UniProt P21917)", "> 1000 nM"],
  ["COc1ccccc1N1CCN(CC(O)CCn2cc(-c3ccc4ccccc4c3)nn2)CC1 (racemic)", "D(4) dopamine receptor (Homo sapiens, UniProt P21917)", "> 2000 nM"],
  ["COc1ccccc1N1CCN(CCCCc2cn(-c3ccc4c(c3)Cc3ccccc3-4)nn2)CC1", "D(4) dopamine receptor (Homo sapiens, UniProt P21917)", "329 nM"],
  ["Clc1cccc(N2CCN(CCCCn3cc(-c4ccc5ncccc5c4)nn3)CC2)c1Cl", "D(4) dopamine receptor (Homo sapiens, UniProt P21917)", "> 1000 nM"],
  ["Clc1cccc(N2CCN(CCCCn3cc(-c4ccc5ccccc5c4)nn3)CC2)c1Cl", "D(4) dopamine receptor (Homo sapiens, UniProt P21917)", "> 1000 nM"],
  ["Clc1cccc(N2CCN(CCCCn3cc(-c4ccc5c(c4)Cc4ccccc4-5)nn3)CC2)c1Cl", "D(4) dopamine receptor (Homo sapiens, UniProt P21917)", "> 20000 nM"],
  ["COc1ccccc1N1CCN(CCCCc2cn(-c3ccc4ccccc4c3)nn2)CC1", "D(4) dopamine receptor (Homo sapiens, UniProt P21917)", "299 nM"]
]}

###

- experimentalTarget: D(2) dopamine receptor (Homo sapiens, UniProt P14416)
- Sequence (P14416 whole entry): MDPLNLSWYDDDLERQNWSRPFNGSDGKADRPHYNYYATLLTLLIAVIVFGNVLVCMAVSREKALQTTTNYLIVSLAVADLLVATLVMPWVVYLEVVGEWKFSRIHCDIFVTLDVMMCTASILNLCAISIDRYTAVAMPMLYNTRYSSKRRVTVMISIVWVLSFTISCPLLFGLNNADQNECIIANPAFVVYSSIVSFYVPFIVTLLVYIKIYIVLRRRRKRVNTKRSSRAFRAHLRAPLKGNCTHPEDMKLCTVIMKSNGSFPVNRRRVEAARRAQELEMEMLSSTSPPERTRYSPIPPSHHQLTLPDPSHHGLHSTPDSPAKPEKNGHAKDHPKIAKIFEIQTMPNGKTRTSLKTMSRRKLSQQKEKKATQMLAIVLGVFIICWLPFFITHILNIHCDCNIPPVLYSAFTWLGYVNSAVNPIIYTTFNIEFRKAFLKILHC
- assayNotes: Displacement of [3H]-N-methylspiperone from human dopamine D2 receptor expressed in HEK293 cell membranes after 1 hr by liquid scintillation counting analysis
endpointName: log10 Ki (log10 of the value in nM)

{"columns": ["molecule", "log10 Ki"],
 "data": [
  ["OC(CCn1cc(-c2cnc3ccccc3c2)nn1)CN1CCN(c2cccc(Cl)c2Cl)CC1 (racemic)", 2.39],
  ["COc1ccccc1N1CCN(CC(O)CCn2cc(-c3ccccc3)nn2)CC1 (racemic)", 3.08],
  ["Clc1cccc(N2CCN(CCCCc3cn(-c4ccc5ccccc5c4)nn3)CC2)c1Cl", 1.91],
  ["COc1ccccc1-c1cn(CCC(O)CN2CCN(c3ccccc3OC)CC2)nn1 (racemic)", 3.01],
  ["OC(CCn1cc(-c2ccc(-c3ccccc3)cc2)nn1)CN1CCN(c2cccc(Cl)c2Cl)CC1 (racemic)", 4.18]
]}

###

Listed next: entries and their corresponding pKi.
- experimentalTarget: D(2) dopamine receptor (Homo sapiens, UniProt P14416)
- assayNotes: Displacement of [3H]-N-methylspiperone from human dopamine D2 receptor expressed in HEK293 cell membranes after 1 hr by liquid scintillation counting analysis
pKi: −log10 of the molar value.

{"columns": ["compound", "experimentalTarget", "pKi"],
 "data": [
  ["COc1ccccc1N1CCN(CC(O)CCn2cc(-c3ccc4[nH]ccc4c3)nn2)CC1 (racemic)", "D(2) dopamine receptor (Homo sapiens, UniProt P14416)", 6.10],
  ["Clc1cccc(N2CCN(CCCCn3cc(-c4ccc(-c5ccccc5)cc4)nn3)CC2)c1Cl", "D(2) dopamine receptor (Homo sapiens, UniProt P14416)", 5.59],
  ["COc1ccccc1N1CCN(CCCCc2cn(-c3cccc4ncccc34)nn2)CC1", "D(2) dopamine receptor (Homo sapiens, UniProt P14416)", 7.08],
  ["COc1ccccc1N1CCN(CCCCn2cc(-c3ccc4ccccc4c3)nn2)CC1", "D(2) dopamine receptor (Homo sapiens, UniProt P14416)", 7.63],
  ["COc1ccccc1N1CCN(CC(O)CCn2cc(-c3ccc4ncccc4c3)nn2)CC1 (racemic)", "D(2) dopamine receptor (Homo sapiens, UniProt P14416)", 6.37],
  ["COc1ccccc1N1CCN(CC(O)CCn2cc(-c3ccc(-c4ccccc4)cc3)nn2)CC1 (racemic)", "D(2) dopamine receptor (Homo sapiens, UniProt P14416)", 6.09],
  ["COc1ccccc1N1CCN(CC(O)CCn2cc(-c3ccc4ccccc4c3)nn2)CC1 (racemic)", "D(2) dopamine receptor (Homo sapiens, UniProt P14416)", 6.72],
  ["COc1ccccc1N1CCN(CCCCc2cn(-c3ccccc3)nn2)CC1", "D(2) dopamine receptor (Homo sapiens, UniProt P14416)", 7.27],
  ["COc1ccccc1N1CCN(CCCCn2cc(-c3ccc4ncccc4c3)nn2)CC1", "D(2) dopamine receptor (Homo sapiens, UniProt P14416)", 7.37],
  ["Clc1cccc(N2CCN(CCCCn3cc(-c4ccc5ncccc5c4)nn3)CC2)c1Cl", "D(2) dopamine receptor (Homo sapiens, UniProt P14416)", 7.27],
  ["O=C(NCCC(O)CN1CCN(c2cccc(Cl)c2Cl)CC1)c1cnc2ccccc2c1 (stereo unspecified)", "D(2) dopamine receptor (Homo sapiens, UniProt P14416)", 6.49]
]}

###

- experimentalTarget: D(3) dopamine receptor (Homo sapiens)
- Sequence (P35462 whole entry): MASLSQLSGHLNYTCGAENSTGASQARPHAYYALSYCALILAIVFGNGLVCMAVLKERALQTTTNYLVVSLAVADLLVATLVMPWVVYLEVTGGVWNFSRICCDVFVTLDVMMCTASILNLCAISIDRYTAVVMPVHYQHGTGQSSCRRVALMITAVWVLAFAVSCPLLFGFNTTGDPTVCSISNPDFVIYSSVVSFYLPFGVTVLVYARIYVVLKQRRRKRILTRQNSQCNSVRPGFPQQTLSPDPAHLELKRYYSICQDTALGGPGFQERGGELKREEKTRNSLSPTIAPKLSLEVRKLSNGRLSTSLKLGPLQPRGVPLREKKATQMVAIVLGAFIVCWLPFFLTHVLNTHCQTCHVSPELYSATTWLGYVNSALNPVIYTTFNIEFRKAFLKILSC
pKi: −log10 of the molar value.

{"columns": ["molecule", "pKi"],
 "data": [
  ["Clc1cccc(N2CCN(CCCCc3cn(-c4ccc5ccccc5c4)nn3)CC2)c1Cl", 8.42],
  ["COc1ccccc1N1CCN(CCCCn2cc(-c3ccc(-c4ccccc4)cc3)nn2)CC1", 8.23],
  ["COc1ccccc1N1CCN(CCCCn2cc(-c3ccc4[nH]ccc4c3)nn2)CC1", 8.26],
  ["Clc1cccc(N2CCN(CCCCc3cn(-c4ccc5c(c4)Cc4ccccc4-5)nn3)CC2)c1Cl", 8.30]
]}

###

Listed next: entries and their corresponding Ratio Ki.
- Organism: Homo sapiens
- assayNotes: Selectivity ratio of Ki for human dopamine D2 receptor to Ki for human dopamine D3 receptor
endpointName: Ratio Ki

{"columns": ["molecule", "val"],
 "data": [
  ["Clc1cccc(N2CCN(CCCCn3cc(-c4ccc5c(c4)Cc4ccccc4-5)nn3)CC2)c1Cl", 63],
  ["OC(CCn1cc(-c2cnc3ccccc3c2)nn1)CN1CCN(c2cccc(Cl)c2Cl)CC1 (racemic)", 14],
  ["COc1ccccc1N1CCN(CC(O)CCn2cc(-c3ccc4[nH]ccc4c3)nn2)CC1 (racemic)", 23],
  ["COc1ccccc1N1CCN(CC(O)CCn2cc(-c3ccc4c(c3)Cc3ccccc3-4)nn2)CC1 (racemic)", 33],
  ["COc1ccccc1N1CCN(CCCCn2cc(-c3ccc4ncccc4c3)nn2)CC1", 6.3],
  ["Clc1cccc(N2CCN(CCCCn3cc(-c4ccc5[nH]ccc5c4)nn3)CC2)c1Cl", 38],
  ["Clc1cccc(N2CCN(CCCCc3cn(-c4ccc5c(c4)Cc4ccccc4-5)nn3)CC2)c1Cl", 84],
  ["COc1ccccc1N1CCN(CCCCc2cn(-c3ccc4c(c3)Cc3ccccc3-4)nn2)CC1", 36],
  ["COc1ccccc1N1CCN(CCCCn2cc(-c3ccc4c(c3)Cc3ccccc3-4)nn2)CC1", 9],
  ["COc1ccccc1N1CCN(CCCCc2cn(-c3ccccc3)nn2)CC1", 10],
  ["COc1ccccc1N1CCN(CC(O)CCn2cc(-c3ccc4ccccc4c3)nn2)CC1 (racemic)", 4.6],
  ["COc1ccccc1N1CCN(CCCCn2cc(-c3ccc(-c4ccccc4)cc3)nn2)CC1", 12]
]}
